# Test system: PANC-1 complex spheroid growth, percent test/control
# assay.text: Anticancer human tumor PANC-1 cell line growth inhibition [Asc];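 note: spheroids exposed to agents for 7 days; percent viability relative to DMSO vehicle wells taken as 100%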
# particulars: second compound 0.1 µM; first compound 0.00316 µM; hits give low values
Examples of compounds with documented viability, T/C follow.

compound	property.measured	recorded.result
Cn1ncnc1[C@H]1c2n[nH]c(=O)c3cc(F)cc(c23)N[C@@H]1c1ccc(F)cc1 + Cc1c(S(C)(=O)=O)c(-c2cc(F)cc(N3CCN(c4ccc(NS(=O)(=O)c5ccc(NC(CCN6CCC(C(=O)OCCCP(=O)(O)O)CC6)CSc6ccccc6)c(S(=O)(=O)C(F)(F)F)c5)cc4)CC3)c2)c(-c2ccc(Cl)cc2)n1C(C)C	viability, T/C	93.5%

Recorded viability, T/C of CCN1CCN(Cc2ccc(Nc3ncc(F)c(-c4cc(F)c5nc(C)n(C(C)C)c5c4)n3)nc2)CC1 + Cc1c(S(C)(=O)=O)c(-c2cc(F)cc(N3CCN(c4ccc(NS(=O)(=O)c5ccc(NC(CCN6CCC(C(=O)OCCCP(=O)(O)O)CC6)CSc6ccccc6)c(S(=O)(=O)C(F)(F)F)c5)cc4)CC3)c2)c(-c2ccc(Cl)cc2)n1C(C)C , please. 96%

Recorded viability, T/C of CNC(C)C(=O)NC1CN(S(=O)(=O)c2cccc(S(=O)(=O)N3CCC4CCC(C(=O)NC(c5ccccc5)c5ccccc5)N4C(=O)C(NC(=O)C(C)NC)C3)c2)CCC2CCC(C(=O)NC(c3ccccc3)c3ccccc3)N2C1=O (stereo not drawn) + Cc1c(S(C)(=O)=O)c(-c2cc(F)cc(N3CCN(c4ccc(NS(=O)(=O)c5ccc(NC(CCN6CCC(C(=O)OCCCP(=O)(O)O)CC6)CSc6ccccc6)c(S(=O)(=O)C(F)(F)F)c5)cc4)CC3)c2)c(-c2ccc(Cl)cc2)n1C(C)C , please. 96.6%

* * *

# System: PANC-1 complex spheroid growth, percent test/control
# assay.text: Anticancer human tumor PANC-1 cell line growth inhibition [Asc];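 note: spheroids exposed to agents for 7 days; percent viability relative to DMSO vehicle wells taken as 100%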
# particulars: second compound 0.01 µM; first compound 0.1 µM; hits give low values
property.measured: viability, T/C

A selection of reference data follows.
molecule	recorded.result
O=C(c1cc(Cc2n[nH]c(=O)c3ccccc23)ccc1F)N1CCN(C(=O)C2CC2)CC1 + CNC(C)C(=O)NC1CN(S(=O)(=O)c2cccc(S(=O)(=O)N3CCC4CCC(C(=O)NC(c5ccccc5)c5ccccc5)N4C(=O)C(NC(=O)C(C)NC)C3)c2)CCC2CCC(C(=O)NC(c3ccccc3)c3ccccc3)N2C1=O	100%
CCN1CCN(Cc2ccc(Nc3ncc(F)c(-c4cc(F)c5nc(C)n(C(C)C)c5c4)n3)nc2)CC1 + CNC(C)C(=O)NC1CN(S(=O)(=O)c2cccc(S(=O)(=O)N3CCC4CCC(C(=O)NC(c5ccccc5)c5ccccc5)N4C(=O)C(NC(=O)C(C)NC)C3)c2)CCC2CCC(C(=O)NC(c3ccccc3)c3ccccc3)N2C1=O	116%
C=CC(=O)N1CCN(c2nc(=O)n(-c3c(C)ccnc3C(C)C)c3nc(-c4c(O)cccc4F)c(F)cc23)C(C)C1 (centres undefined) + CNC(C)C(=O)NC1CN(S(=O)(=O)c2cccc(S(=O)(=O)N3CCC4CCC(C(=O)NC(c5ccccc5)c5ccccc5)N4C(=O)C(NC(=O)C(C)NC)C3)c2)CCC2CCC(C(=O)NC(c3ccccc3)c3ccccc3)N2C1=O	92.8%
Cn1ncnc1[C@H]1c2n[nH]c(=O)c3cc(F)cc(c23)N[C@@H]1c1ccc(F)cc1 + CNC(C)C(=O)NC1CN(S(=O)(=O)c2cccc(S(=O)(=O)N3CCC4CCC(C(=O)NC(c5ccccc5)c5ccccc5)N4C(=O)C(NC(=O)C(C)NC)C3)c2)CCC2CCC(C(=O)NC(c3ccccc3)c3ccccc3)N2C1=O	111%
COc1c(OCCCN2CCOCC2)ccc2c3n(c(=NC(=O)c4cnc(N)nc4)nc12)CCN3 + CNC(C)C(=O)NC1CN(S(=O)(=O)c2cccc(S(=O)(=O)N3CCC4CCC(C(=O)NC(c5ccccc5)c5ccccc5)N4C(=O)C(NC(=O)C(C)NC)C3)c2)CCC2CCC(C(=O)NC(c3ccccc3)c3ccccc3)N2C1=O	65.7%

Return viability, T/C measured with PANC-1 complex spheroid growth, percent test/control given this molecule: NC1CCC(NC2CC2c2ccccc2)CC1 (centres undefined) + CNC(C)C(=O)NC1CN(S(=O)(=O)c2cccc(S(=O)(=O)N3CCC4CCC(C(=O)NC(c5ccccc5)c5ccccc5)N4C(=O)C(NC(=O)C(C)NC)C3)c2)CCC2CCC(C(=O)NC(c3ccccc3)c3ccccc3)N2C1=O 94.4%

Return viability, T/C measured with PANC-1 complex spheroid growth, percent test/control given this molecule: O=C(c1ccc(F)c(F)c1Nc1ccc(I)cc1F)N1CC(O)([C@@H]2CCCCN2)C1 + CNC(C)C(=O)NC1CN(S(=O)(=O)c2cccc(S(=O)(=O)N3CCC4CCC(C(=O)NC(c5ccccc5)c5ccccc5)N4C(=O)C(NC(=O)C(C)NC)C3)c2)CCC2CCC(C(=O)NC(c3ccccc3)c3ccccc3)N2C1=O 89%

Return viability, T/C measured with PANC-1 complex spheroid growth, percent test/control given this molecule: C=C(F)C(=O)N1CCN(c2nc(OCC3CCCN3C)nc3c2CCN(c2cccc4cccc(Cl)c24)C3)CC1CC#N (centres undefined) + CNC(C)C(=O)NC1CN(S(=O)(=O)c2cccc(S(=O)(=O)N3CCC4CCC(C(=O)NC(c5ccccc5)c5ccccc5)N4C(=O)C(NC(=O)C(C)NC)C3)c2)CCC2CCC(C(=O)NC(c3ccccc3)c3ccccc3)N2C1=O 92.4%

Return viability, T/C measured with PANC-1 complex spheroid growth, percent test/control given this molecule: C#Cc1c(F)ccc2cc(O)cc(-c3ncc4c(N5CC6CCC(C5)N6)nc(OCC56CCCN5CC(F)C6)nc4c3F)c12 (centres undefined) + CNC(C)C(=O)NC1CN(S(=O)(=O)c2cccc(S(=O)(=O)N3CCC4CCC(C(=O)NC(c5ccccc5)c5ccccc5)N4C(=O)C(NC(=O)C(C)NC)C3)c2)CCC2CCC(C(=O)NC(c3ccccc3)c3ccccc3)N2C1=O 81.9%

* * *

# Test system: PANC-1 complex spheroid growth, percent test/control
# assay.text: Anticancer human tumor PANC-1 cell line growth inhibition [Asc];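 note: spheroids exposed to agents for 7 days; percent viability relative to DMSO vehicle wells taken as 100%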
# particulars: second compound 3.16 µM; first compound 0.00316 µM; hits give low values
property.measured: viability, T/C (%)
A number alone suffices; assume %.

molecule	subject.of.test	recorded.result
CCN1CCN(Cc2ccc(Nc3ncc(F)c(-c4cc(F)c5nc(C)n(C(C)C)c5c4)n3)nc2)CC1 + Cc1c(S(C)(=O)=O)c(-c2cc(F)cc(N3CCN(c4ccc(NS(=O)(=O)c5ccc(NC(CCN6CCC(C(=O)OCCCP(=O)(O)O)CC6)CSc6ccccc6)c(S(=O)(=O)C(F)(F)F)c5)cc4)CC3)c2)c(-c2ccc(Cl)cc2)n1C(C)C	PANC-1 complex spheroid growth, percent test/control	110
NC1CCC(NC2CC2c2ccccc2)CC1 (stereo not drawn) + Cc1c(S(C)(=O)=O)c(-c2cc(F)cc(N3CCN(c4ccc(NS(=O)(=O)c5ccc(NC(CCN6CCC(C(=O)OCCCP(=O)(O)O)CC6)CSc6ccccc6)c(S(=O)(=O)C(F)(F)F)c5)cc4)CC3)c2)c(-c2ccc(Cl)cc2)n1C(C)C	PANC-1 complex spheroid growth, percent test/control	102

Consider now this further molecule.
Recorded viability, T/C of O=C(c1ccc(F)c(F)c1Nc1ccc(I)cc1F)N1CC(O)([C@@H]2CCCCN2)C1 + Cc1c(S(C)(=O)=O)c(-c2cc(F)cc(N3CCN(c4ccc(NS(=O)(=O)c5ccc(NC(CCN6CCC(C(=O)OCCCP(=O)(O)O)CC6)CSc6ccccc6)c(S(=O)(=O)C(F)(F)F)c5)cc4)CC3)c2)c(-c2ccc(Cl)cc2)n1C(C)C , please. 104

* * *

Examples of molecules with documented viability, T/C follow.
# Test system: PANC-1 complex spheroid growth, percent test/control
# assay.text: Anticancer human tumor PANC-1 cell line growth inhibition [Asc];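 note: spheroids exposed to agents for 7 days; percent viability relative to DMSO vehicle wells taken as 100%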
# particulars: second compound 1 µM; first compound 0.0949 µM; hits give low values
A number alone suffices; assume %.

A selection of reference data follows.
molecule	viability, T/C, %
CCN1C(C(=O)NC23CCC(C(=O)O)(CC2)CC3)C(c2cccc(Cl)c2F)C2(C(=O)Nc3cc(Cl)ccc32)C12CCCCC2 (stereo unspecified) + Cc1c(S(C)(=O)=O)c(-c2cc(F)cc(N3CCN(c4ccc(NS(=O)(=O)c5ccc(NC(CCN6CCC(C(=O)OCCCP(=O)(O)O)CC6)CSc6ccccc6)c(S(=O)(=O)C(F)(F)F)c5)cc4)CC3)c2)c(-c2ccc(Cl)cc2)n1C(C)C	106
NC(=O)C(=Cn1cnc(-c2cc(C(F)(F)F)cc(C(F)(F)F)c2)n1)c1cncnc1 + CNC(C)C(=O)NC1CN(S(=O)(=O)c2cccc(S(=O)(=O)N3CCC4CCC(C(=O)NC(c5ccccc5)c5ccccc5)N4C(=O)C(NC(=O)C(C)NC)C3)c2)CCC2CCC(C(=O)NC(c3ccccc3)c3ccccc3)N2C1=O	88.8
Cc1nc(N2CCC3(CC2)COC(C)C3N)c(CO)nc1Sc1ccnc(N)c1Cl (stereo unspecified) + CNC(C)C(=O)NC1CN(S(=O)(=O)c2cccc(S(=O)(=O)N3CCC4CCC(C(=O)NC(c5ccccc5)c5ccccc5)N4C(=O)C(NC(=O)C(C)NC)C3)c2)CCC2CCC(C(=O)NC(c3ccccc3)c3ccccc3)N2C1=O	82.6
NC(=O)C(=Cn1cnc(-c2cc(C(F)(F)F)cc(C(F)(F)F)c2)n1)c1cncnc1 + Cc1c(S(C)(=O)=O)c(-c2cc(F)cc(N3CCN(c4ccc(NS(=O)(=O)c5ccc(NC(CCN6CCC(C(=O)OCCCP(=O)(O)O)CC6)CSc6ccccc6)c(S(=O)(=O)C(F)(F)F)c5)cc4)CC3)c2)c(-c2ccc(Cl)cc2)n1C(C)C	130
Cc1nc(N2CCC3(CC2)COC(C)C3N)c(CO)nc1Sc1ccnc(N)c1Cl (stereo unspecified) + Cc1c(S(C)(=O)=O)c(-c2cc(F)cc(N3CCN(c4ccc(NS(=O)(=O)c5ccc(NC(CCN6CCC(C(=O)OCCCP(=O)(O)O)CC6)CSc6ccccc6)c(S(=O)(=O)C(F)(F)F)c5)cc4)CC3)c2)c(-c2ccc(Cl)cc2)n1C(C)C	85.9

Recorded viability, T/C of CCN1C(C(=O)NC23CCC(C(=O)O)(CC2)CC3)C(c2cccc(Cl)c2F)C2(C(=O)Nc3cc(Cl)ccc32)C12CCCCC2 (stereo unspecified) + CNC(C)C(=O)NC1CN(S(=O)(=O)c2cccc(S(=O)(=O)N3CCC4CCC(C(=O)NC(c5ccccc5)c5ccccc5)N4C(=O)C(NC(=O)C(C)NC)C3)c2)CCC2CCC(C(=O)NC(c3ccccc3)c3ccccc3)N2C1=O , please. 98
